Values were extracted from PubChem BioAssay.

Listing of entries alongside the reported composite z-score.
target.entity: Albumin (Bos taurus)
assay.text: bovine serum albumin binders on microarray, profiling panel, artefact control for SMM control protein annotation, biochemical, small-molecule microarray, Alexa647 label, 635/667 nm fluorescence (AID 1118);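 further: score merges 667 nm emission intensity and signal-to-noise per printed compound spot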
experimental.context: BSA-A647 binding, fluorescence 635 nm, higher = more signal
assay.readout: composite z-score

compound	assay.readout	experimental.result
O=C1NC(=O)C2C1C=CC(C(O)c1ccc(Br)cc1)N2Nc1ccccn1 (centres undefined)	composite z-score	0.849
COCCOC(=O)N1C(=O)[C@@]2(c3ccccc31)[C@H](c1ccc(OCCO)cc1)N1[C@H](c3ccccc3)[C@H](c3ccccc3)OC(=O)[C@H]1[C@@H]2C(=O)Nc1nc2ccccc2s1	composite z-score	0.903
CN(C)CCCNC(=O)[C@@H]1c2ccccc2C(=O)N(CC23CC4CC(CC(C4)C2)C3)[C@H]1c1ccc(CO)cc1	composite z-score	0.821
COC(=O)[C@@]1(Cc2ccc(OC)cc2)[C@H]2c3cc(C(=O)N(C)C)n(Cc4ccccc4)c3C[C@H]2CN1C(=O)c1ccccc1	composite z-score	0.864
C=CCOC(=O)[C@@H]1[C@H]2C(=O)O[C@H](c3ccccc3)[C@H](c3ccccc3)N2[C@H](c2ccc(OCCOC(=O)[C@H]3C[C@H]4C(=O)N[C@@H](CCCCN(C)C)C(=O)N4[C@H]3c3cccc(OCCO)c3)cc2)[C@@]12C(=O)Nc1ccc(I)cc12	composite z-score	-0.624
C[C@@H](OCc1ccccc1)C1NC(=O)[C@@]23C(=O)N[C@@H](Cc4ccccc4)C2[C@H](C)[C@@]2(C)O[C@H]2C3/C=C/C/C=C\CNC(=O)CNC1=O (some centres undefined)	composite z-score	0.651
COCCOC(=O)N1C(=O)[C@@]2(c3cc(C#CCNC(N)=O)ccc31)[C@H](C(=O)N1CCCCCCC1)[C@H]1C(=O)O[C@H](c3ccccc3)[C@H](c3ccccc3)N1[C@@H]2c1ccc(O)cc1	composite z-score	0.0763
COCCCNC(=O)[C@@]1(Sc2ccc(C)cc2)CC(=O)N(Cc2cc(C(F)(F)F)cc(C(F)(F)F)c2)[C@@H]1c1ccc(CO)cc1	composite z-score	0.734
O=C(O)[C@]1(Cc2ccccc2)N=C(c2ccc(OCCCO)cc2)O[C@@H]1c1ccccc1	composite z-score	0.424
CO[C@H]1O[C@H](CO)[C@@H](OC(=O)Nc2ccc(C(F)(F)F)cc2)[C@H](OC(=O)Nc2ccc3c(c2)OCO3)[C@H]1OC(=O)Nc1ccc2c(c1)OCO2	composite z-score	0.72
O=C1OC[C@@H](c2ccccc2)N2CC(/C=C/c3ccccc3)=CC12 (some centres undefined)	composite z-score	0.0154
COc1cc2c(cc1OC)CN(C(=O)[C@@H]1[C@H]3C(=O)O[C@H](c4ccccc4)[C@H](c4ccccc4)N3[C@H](c3ccccc3OCCO)[C@@]13C(=O)Nc1ccc(C#CC4(O)CCCCCC4)cc13)CC2	composite z-score	0.319
CON(C)C(=O)C=C1C[C@@H](c2cccc(Cl)c2)O[C@@H](c2cccc(Cl)c2)O1	composite z-score	0.268
COc1ccc(C(O)C2C=CC3C(=O)N(Cc4ccccc4)C(=O)C3N2n2cnnc2)c2ccccc12 (centres undefined)	composite z-score	0.626

###

System: Fibrinogen (Alexa647-labelled)
assay.text: fibrinogen binders on compound microarrays, profiling panel, artefact control for SMM control-protein annotation, biochemical, small-molecule microarray, 635/667 nm fluorescence (AID 1131);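 further: z-score merges 667 nm fluorescence with per-spot signal-to-noise over triplicate slides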
experimental.context: fibrinogen-A647 binding fluorescence, higher = more signal
Listing of entries alongside the reported composite z-score.

compound	target.entity	composite z-score
O=C1O[C@@H](c2ccccc2)[C@@H](c2ccccc2)N2[C@@H](c3ccccc3OCCO)[C@]3(C(=O)Nc4ccc(C#CCCO)cc43)[C@@H](C(=O)N3CCN(c4ncccn4)CC3)[C@H]12	Fibrinogen (Alexa647-labelled)	0.946
CCCN1C(=O)[C@]2(Cc3ccccc3)N=C(c3ccc(OCCCO)cc3)O[C@@H]2c2ccccc21	Fibrinogen (Alexa647-labelled)	0.962
COc1cc2c(cc1O)C(C)N(Cc1cc3c(cc1Br)OCO3)CC2 (centres undefined)	Fibrinogen (Alexa647-labelled)	-1.01
O=C1C[C@@](C(=O)NCC(F)(F)F)(c2ccc([N+](=O)[O-])cc2)[C@@H](c2ccc(CO)cc2)N1C1CCCCC1	Fibrinogen (Alexa647-labelled)	0.956

###

assay.text: HepG2 cell viability effects, profiling panel, calcein-AM fluorescence, 48 h, basal (AID 1164); further: test concentration not given here
experimental.context: higher = more signal
Listing of entries alongside the reported z-score.

molecule	z-score
O=C1OC[C@@H](c2ccccc2)N2CC(/C=C/c3ccccc3)=CC12 (stereo partly drawn)	-0.255
O=C(CS)NCCCCCCNC(=O)[C@@H]1C[C@@H]2C(=O)N3CCC[C@H]3C(=O)N2[C@@H]1c1cccc(OCCO)c1	1.02
CC(=O)NCCCC[C@@H]1NC(=O)[C@@H]2C[C@H](C(=O)O)[C@H](c3ccc(O)cc3)N2C1=O	-0.552
NCCCCCNC(=O)[C@@H]1C[C@@H]2C(=O)N[C@@H](CCCCN)C(=O)N2[C@@H]1c1cccc(OCCO)c1	0.68
O=C1NC(=O)C2C1C=CC(C(O)c1ccc3c(c1)OCO3)N2Nc1ccccn1 (stereo not drawn)	0.641
NCCCCCCNC(=O)[C@H]1C[C@H]2C(=O)N[C@@H](Cc3ccccc3)C(=O)N2[C@H]1c1ccc(O)cc1	-0.623
C#CCNC(=O)[C@H](Cc1ccccc1)NC(=O)[C@@H](N=[N+]=[N-])C(C)C	0.0785
COCCOC(=O)N1C(=O)[C@@]2(c3cc(C#Cc4ccc(OC)cc4)ccc31)[C@H](C(=O)NC[C@H](O)c1ccccc1)[C@H]1C(=O)O[C@H](c3ccccc3)[C@H](c3ccccc3)N1[C@@H]2c1ccc(O)cc1	-0.862

###

assay.text: binders of probe aFST on microarray, primary screen, stem cell growth factor project, biochemical, small-molecule microarray, fluorescence 635/667 (AID 1086);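 further: score merges 667 nm fluorescence with signal-to-noise of each printed compound spot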
experimental.context: higher = more signal

mol.smiles	composite z-score
COc1ccc([Si](C)(C)[C@@H]2[C@@H](CCO)O[C@]3(C(=O)N(Cc4cccc(N5C(=O)c6cccc7cccc5c67)c4)c4ccccc43)[C@H]2C)cc1	-0.0576
O=C1O[C@@H](c2ccccc2)[C@@H](c2ccccc2)N2[C@@H](c3ccc(O)cc3)[C@]3(C(=O)Nc4ccc(C#CCCO)cc43)[C@@H](C(=O)NC[C@H](O)c3ccccc3)[C@H]12	-0.0873
C=C[C@@H](C)[C@H](OC(=O)Nc1ccc(SC)cc1)c1ccc(OCCO)cc1	-0.375
COc1ccc([Si](C)(C)[C@H]2[C@H](CCn3cc([C@H](O)c4ccccc4)nn3)O[C@@]3(C(=O)N(Cc4ccc(N5CCOC5=O)cc4)c4ccccc43)[C@@H]2C)cc1	-0.757
COc1c(C)cc(-c2cc3c(c(Cc4ccccc4)n2)[Si](C(C)C)(C(C)C)OC3)cc1C	0.335
C=CCNC(=O)[C@@H]1[C@H]2C(=O)O[C@H](c3ccccc3)[C@H](c3ccccc3)N2[C@H](c2ccc(OCCO)cc2)[C@@]12C(=O)N(C(=O)OCCOC)c1ccc(C#CC3=CCCCC3)cc12	0.622

###

target.entity: Luciferin 4-monooxygenase (Photinus pyralis) (UniProt P08659)
Sequence (P08659 whole entry, looked up): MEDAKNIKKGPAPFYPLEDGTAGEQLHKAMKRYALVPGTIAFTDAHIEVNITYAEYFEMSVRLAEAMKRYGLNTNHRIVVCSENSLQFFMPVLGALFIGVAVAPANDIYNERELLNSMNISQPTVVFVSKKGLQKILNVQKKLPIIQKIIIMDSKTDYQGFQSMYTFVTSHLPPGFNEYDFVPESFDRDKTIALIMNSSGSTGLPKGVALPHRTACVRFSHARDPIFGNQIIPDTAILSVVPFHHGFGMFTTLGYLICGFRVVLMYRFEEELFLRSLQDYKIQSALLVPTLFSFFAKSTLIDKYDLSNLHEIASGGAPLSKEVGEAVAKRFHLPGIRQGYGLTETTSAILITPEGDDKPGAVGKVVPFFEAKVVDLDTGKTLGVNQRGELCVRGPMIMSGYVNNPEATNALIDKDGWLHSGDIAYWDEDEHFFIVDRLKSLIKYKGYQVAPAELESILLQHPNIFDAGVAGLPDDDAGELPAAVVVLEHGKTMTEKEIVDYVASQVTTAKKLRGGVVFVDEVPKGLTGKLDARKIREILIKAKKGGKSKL
assay.text: firefly luciferase enzyme inhibitors, primary screen, biochemical, luminescence, purified enzyme, 2006 set (AID 1141);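 further: cell-free assay with purified firefly luciferase at 100 ng per well in PBS; test concentration not given here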
experimental.context: SteadyGlo luminescence, 30 min, higher = more signal, called active from +8 up or from −8 down
Listing of entries alongside the reported z-score.

compound	z-score
C[C@H]1C2=C3C(CC[C@H]4C(OCc5ccc(F)cc5C(F)(F)F)OC[C@](C)([C@@H]34)N(C(=O)OC(C)(C)C)C2)C(CO)C1CO (some centres undefined)	0.608
O=C1c2ccccc2[C@@]2(Cc3ccccc3N(C3CC3)C2=O)[C@H](c2ccc(CO)cc2)N1C1CCCCC1	0.429
CC(C)(C)OC(=O)CC[C@]1(C(=O)O)N=C(c2ccc(OCCCO)cc2)O[C@H]1c1ccccc1CN=[N+]=[N-]	-2.06
COc1cc2c(cc1OC)CN(C(=O)[C@@H]1[C@H]3C(=O)O[C@H](c4ccccc4)[C@H](c4ccccc4)N3[C@H](c3ccccc3OCCO)[C@@]13C(=O)Nc1ccc(C#CC4(O)CCCCCC4)cc13)CC2	-0.877
COCCOC(=O)N1C(=O)[C@@]2(c3cc(C#Cc4ccc(OC)cc4)ccc31)[C@H](C(=O)N1CCN(c3ncccn3)CC1)[C@H]1C(=O)O[C@H](c3ccccc3)[C@H](c3ccccc3)N1[C@@H]2c1ccccc1OCCO	0.223
O=C1O[C@@H](c2ccccc2)[C@@H](c2ccccc2)N2[C@@H](c3ccccc3OCCO)[C@]3(C(=O)Nc4ccc(C#CCCO)cc43)[C@@H](C(=O)Nc3nc4ccccc4s3)[C@H]12	-0.778
COC(=O)[C@@]1(Cc2ccc(F)cc2)[C@H]2c3cc(C(=O)N4CCCC4)n(CCF)c3C[C@H]2CN1C(=O)c1ccccc1	0.125
C=C(CCCC)C(=O)CC[C@@H](OC(=O)c1ccccc1-c1ccccc1C(=O)O)c1cccc(OCCO)c1	-2.33
NCCCCCCNC(=O)[C@H]1C[C@H]2C(=O)N[C@@H](Cc3ccccc3)C(=O)N2[C@H]1c1ccc(O)cc1	0.166
CC(C)C(O)C1C=CC2C(=O)N(C)C(=O)C2N1Nc1ccccc1 (centres undefined)	-0.968
CCOC(=O)C[C@H]1[C@H](OC(=O)c2ccccc2-c2ccccc2)[C@@H](NC(=O)c2ccc3ccccc3n2)c2cc(OCCCO)ccc2N1C(=O)c1ccc2ccccc2n1	0.761
O=C1OC[C@@H](c2ccccc2)N2CC(/C=C/c3ccccc3)=CC12 (some centres undefined)	0.0761
COCCCNC(=O)[C@]1(Cc2ccccc2N=[N+]=[N-])N=C(c2ccc(OCCCO)cc2)O[C@@H]1c1ccccc1N=[N+]=[N-]	-3.27
NC(=O)N1C(=O)C2C(C1=O)C1C=C(CCCO)C2C(c2cccs2)N1Cc1cc2c(cc1Br)OCO2 (centres undefined)	-0.062
